# assay: small-molecule microarray binders of probe aDKK1, primary screen, biochemical, biotinylated probe, 635/667 nm fluorescence (AID 1099);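 note: score merges 667nm spot fluorescence with signal to noise across triplicate slides; reference of the scale not given here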
# cond: higher = more signal
valueKind: composite z-score

> print(dat)
                                   compound          valuekind  observedresult
1  C[C@H]1CC[C@H]2C(=O)OC(CO)CN2[C@@H]1c1ccc(Br)cc1 (stereo not given in full)  composite z-score           -0.28
2  CCOC(=O)[C@H](Cc1ccccc1)NC(=O)CCC1CC(OC(=O)NCCc2ccc(F)cc2)CC2(CCCC(COC(=O)NCC3CCCCC3)O2)O1 (stereo not given in full)  composite z-score          -0.184
3  CCc1cc2c(nc1CC)CCN(CCC(C)=NO[C@H](C)c1cn([C@H](CO)Cc3ccccc3)nn1)C2  composite z-score          -0.144
4  O=C(NN=C1C[C@@H](O)[C@@H](O)[C@@H]2[C@@H]3C(=O)N(C4CCCCC4)C(=O)[C@@H]3CC[C@H]12)OCc1ccccc1  composite z-score           0.691

Here is the next item to consider.
Q: Given `CC(=O)OC[C@H]1O[C@@H](ON=C(C)CCN2CCCc3nc(C)c(C)cc32)[C@H](OC(C)=O)[C@@H](OC(C)=O)[C@@H]1OC(C)=O` , state its recorded composite z-score.
Ans: -0.132

Reference source for all entries: PubChem BioAssay
